The measurements presented in this section are drawn from patent US10040781B2.

target-system: IKKε (Homo sapiens (Human), UniProt Q14164)
Sequence (Q14164 whole entry): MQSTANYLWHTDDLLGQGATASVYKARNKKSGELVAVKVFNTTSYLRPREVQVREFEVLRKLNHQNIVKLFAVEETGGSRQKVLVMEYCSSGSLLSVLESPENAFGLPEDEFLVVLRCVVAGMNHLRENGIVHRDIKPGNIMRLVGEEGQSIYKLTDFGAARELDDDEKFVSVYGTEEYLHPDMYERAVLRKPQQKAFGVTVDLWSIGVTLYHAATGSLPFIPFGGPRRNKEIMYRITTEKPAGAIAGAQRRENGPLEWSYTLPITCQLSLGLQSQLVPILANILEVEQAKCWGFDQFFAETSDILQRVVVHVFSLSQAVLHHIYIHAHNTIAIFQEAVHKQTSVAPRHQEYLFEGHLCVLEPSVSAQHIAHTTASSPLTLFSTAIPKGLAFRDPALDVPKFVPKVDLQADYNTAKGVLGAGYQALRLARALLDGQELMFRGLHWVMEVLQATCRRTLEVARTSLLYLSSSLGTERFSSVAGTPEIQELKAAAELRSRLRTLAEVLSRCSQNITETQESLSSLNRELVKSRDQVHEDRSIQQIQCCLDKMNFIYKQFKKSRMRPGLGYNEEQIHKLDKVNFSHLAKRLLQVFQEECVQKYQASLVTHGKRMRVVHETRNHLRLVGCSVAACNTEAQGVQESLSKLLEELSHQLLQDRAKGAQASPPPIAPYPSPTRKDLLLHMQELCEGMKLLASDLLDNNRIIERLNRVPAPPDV
test-method-notes: IKKε TR-FRET enzymatic assay
Type: biochemical
reported-conditions: TR-FRET, 2×Km ATP; geometric mean of minimum four determinations; read-out: IKKe IC50
Class key for IC50 values: bin 0: < 2 nM; bin 1: ≥ 2 nM and < 20 nM; bin 2: ≥ 20 nM

>>> category_label("C[C@H](O)C(=O)N1CC[C@H](Oc2ccc(-c3ncnc(Nc4ccc(O[C@H]5CCN(C)C[C@H]5F)cc4)n3)cc2C#N)[C@H](F)C1")
"bin 0"
>>> category_label("N#Cc1cc(-c2ncnc(Nc3ccc(N4CCN(C5COC5)CC4)cc3)n2)ccc1OCC1(C#N)COC1")
"bin 2"
>>> category_label("COCCNC(=O)N1CC[C@H](Oc2ccc(-c3ncnc(Nc4ccc(N5CCN(C6COC6)CC5)cc4)n3)cc2C#N)[C@H](F)C1")
"bin 2"
>>> category_label("C[C@H](O)C(=O)N1CC[C@H](COc2cc(C#N)cc(-c3ncnc(Nc4ccc(N5CCN(C6COC6)CC5)cc4)n3)c2)C1")
"bin 2"
>>> category_label("COc1cc(Nc2ncnc(-c3ccc(O[C@H]4CCN(C(=O)[C@H](C)O)C[C@H]4F)c(C#N)c3)n2)ccn1")
"bin 1"
>>> category_label("C[C@H](O)C(=O)N1CC[C@H](Oc2ccc(-c3ncnc(Nc4ccc(N5CCN(CCO)CC5)cc4)n3)cc2C#N)[C@H](F)C1")
"bin 0"
>>> category_label("N#Cc1cc(-c2ncnc(Nc3ccc(N4CCN(C5COC5)CC4)cc3)n2)ccc1O[C@H]1CCN(C(=O)CO)C[C@H]1C(F)(F)F (relative stereo)")
"bin 1"
>>> category_label("N#Cc1cc(-c2ncnc(Nc3ccc(N4CCN(C5COC5)CC4)cc3)n2)ccc1O[C@@H]1CCN(C(=O)c2nc(=O)[nH][nH]2)C1")
"bin 2"
>>> category_label("N#Cc1cc(-c2ncnc(Nc3ccc(N4CCN(C5COC5)CC4)cc3)n2)ccc1O[C@H]1CCN(C(=O)C2CNC(=O)N2)C[C@H]1F (stereo partly drawn)")
"bin 1"
>>> category_label("COCC(=O)N1CC[C@H](Oc2ccc(-c3ncnc(Nc4ccc(N5CCN(C6COC6)CC5)c(F)c4)n3)cc2C#N)[C@H](F)C1")
"bin 1"
>>> category_label("N#Cc1cc(-c2ncnc(Nc3ccc(N4CCN(C5COC5)CC4)cc3)n2)ccc1O[C@H]1CCN(C(=O)[C@@H]2COC(=O)N2)CC1(F)F")
"bin 0"
>>> category_label("N#Cc1cc(-c2ncnc(Nc3ccc(N4CCN(C5COC5)CC4)cc3)n2)ccc1O[C@H]1CCN(C(=O)[C@H](O)CO)C[C@H]1F")
"bin 1"
>>> category_label("N#Cc1cc(-c2ncnc(Nc3ccc(N4CCN5CCOC[C@H]5C4)cc3)n2)ccc1O[C@H]1CCN(C(=O)[C@@H]2CCC(=O)N2)C[C@H]1F")
"bin 1"
>>> category_label("C[C@@H]1CN(c2ccc(Nc3ncnc(-c4ccc(O[C@H]5CCN(C(=O)[C@@H]6CCC(=O)N6)C[C@H]5F)c(C#N)c4)n3)cc2)CCN1C1COC1")
"bin 1"
>>> category_label("C[C@H](O)C(=O)N1CC[C@H](Oc2ccc(-c3ncnc(Nc4ccc5c(c4)CNC5)n3)cc2C#N)[C@H](F)C1")
"bin 0"
>>> category_label("CC(C)(C)n1cc(Nc2ncnc(-c3ccc(O[C@H]4CCN(C(=O)CCO)C[C@H]4F)c(C#N)c3)n2)cn1")
"bin 2"
>>> category_label("N#Cc1cc(-c2ncnc(Nc3ccc(N4CCN(C5COC5)CC4)cc3)n2)ccc1O[C@H]1CCN(C(=O)c2ccnn2CCO)C[C@H]1F")
"bin 2"
>>> category_label("CC1(C)CN(C(=O)CC#N)C[C@H](F)[C@@H]1Oc1ccc(-c2ncnc(Nc3ccc(N4CCN(C5COC5)CC4)cc3)n2)cc1C#N")
"bin 2"
>>> category_label("N#Cc1cc(-c2ncnc(Nc3ccc(N4CCN(C5COC5)CC4)cc3)n2)ccc1O[C@H]1CCN(C(=O)[C@H](O)CO)CC1(F)F")
"bin 0"
>>> category_label("C[C@@H]1OC(=O)N[C@@H]1C(=O)N1CC[C@H](Oc2ccc(-c3ncnc(Nc4ccc(N5CCN(C6COC6)CC5)cc4)n3)cc2C#N)[C@H](F)C1")
"bin 2"
